Origin of the recorded values: patent US10294202B2

System: giant foxtail
Test: Test A pre-/postemergence herbicide test
Format: in vivo, Setaria faberii
Conditions: Preemergence, 125 g ai/ha; visual rating on 0 to 100 scale (0 no effect, 100 complete control)
Test Readout: Foxtail, Giant plant response rating

[
  {
    "Molecule": "O=C1NCC(c2ccccc2)C1(Br)C(=O)Nc1ccccc1F (stereo not shown)",
    "Recorded Result": 80
  },
  {
    "Molecule": "O=C1NCC(c2ccc3c(c2)OC(F)(F)O3)C1C(=O)Nc1ccccc1C(F)(F)F (racemic)",
    "Recorded Result": 80
  },
  {
    "Molecule": "O=C1NCC(c2ccc(Cl)cc2Cl)C1C(=O)Nc1ccccc1F (racemic)",
    "Recorded Result": 0
  },
  {
    "Molecule": "CC1(C)NC(=O)C(C(=O)Nc2ccccc2F)C1c1ccc(F)c(F)c1 (stereo not shown)",
    "Recorded Result": 20
  },
  {
    "Molecule": "O=C1NCC(c2ccc(Cl)c(Cl)c2)C1C(=O)Nc1ccccc1F (racemic)",
    "Recorded Result": 80
  },
  {
    "Molecule": "O=C1NCC(c2ccc(F)c(F)c2)C1C(=O)Nc1cccc(F)c1F (racemic)",
    "Recorded Result": 90
  },
  {
    "Molecule": "N#Cc1cccc(C2CNC(=O)C2C(=O)Nc2ccccc2F)c1 (racemic)",
    "Recorded Result": 60
  }
]
